Test: in vitro
Conditions: African green monkey
REPORTED ENDPOINT: CC50

Dear colleague, I am looking for the recorded CC50 of the following molecule: Nc1ccn([C@H]2CC[C@@H](CO)O2)c(=O)n1 [ddC, 2′, 3′-Dideoxycytidine]
< 5000 µg/mL
